B1: TPR t1 (parent)
chain: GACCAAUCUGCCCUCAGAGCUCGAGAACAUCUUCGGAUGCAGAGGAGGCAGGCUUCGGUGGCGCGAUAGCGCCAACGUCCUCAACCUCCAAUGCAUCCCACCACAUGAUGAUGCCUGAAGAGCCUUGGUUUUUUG

# Variants of: B1
# Protocol Details: polymerase ribozyme fitness, log enrichment relative to wild type (log ratio); higher = more active; in vitro selection for triplet polymerase activity
Binning scheme for polymerase ribozyme fitness (log ratio): low value = under -5, medium value = from -5 up to -3, high value = -3 and over

Sequence Chain: GACCAAUCUGCCCUAAGAGCUCGAGAACAUCUUCGGAUGCAGAGGCGGCAGGCUUCGGUGGCACGAUAGCGCCAACGUCCUCAACCUCCAAUGCAUCCCACCACAUGAUGAUCUCUGAAGAGCCUUGGUUUUUUG [C15A A46C G63A G113C C114U]
Assigned Label: low value
//
Sequence Chain: GACCAAUCUGCCCUCAGAGCUCGAGAACAUCUUCAGAUGCAGAGGAGGCAGGCUUCGGUGGCGCGAUAGUGCCAACGUCCUCAACCUCCAAUGCAUCCCACCACAUGAUGAUGCCUGAAGAGCCUUGGUUUUUUG [G35A C70U]
Assigned Label: high value
//
Sequence Chain: GACCAAUCUGCCCUCAGAGCUCGAGAACAUCUUCGGAUGCGGAGGAGGCAGGCUUCGGUGGCGCGAUGGCGCCAACGUCCUUAACCUCCAAUGCAUCCCACCACAUGAUGAUGCCUGAAGAGCCUUGGUUUUUUG [A41G A68G C82U]
Assigned Label: low value
//
Sequence Chain: GACCAAUCUGCACUCAGAGCUCGAGAACAUCUUCGGAUGCAGAGGAGGCAGGCUUCGGUGGCGCGAUAGCGCCAACGUCCUCAACCUCCAAUGCAUCCGACCACAUGAUUAUGCCUGAAGAGCCUUGGUUUUUUG [C12A C99G G110U]
Assigned Label: low value
//
Sequence Chain: GACCAAUCUGCCCUCAGAGCUCGAGAACAUCUUCGGAUGCAGAGGAGGCAGGCUUCGGUGACGCGAUAGCGCCAACGUCCUCAACCUCCAAUGCAUCACACCACAUGAUGAUGCCUGAAGAGCCUUGGUUUUUUG [G61A C98A]
Assigned Label: medium value
//
Sequence Chain: GACCAAUCUGCCCUGAGAGCUCGAGAACAUCUUCGGAUGCAGAGGGGGCAGGCUUGGGUGGCGCGAUAGCGCCAACGUCCUCAACCUCCAAUGCAUCCCACCACAUGAUGAUGCCUGAAGAGCCUUGGUUUUUUG [C15G A46G C56G]
Assigned Label: medium value
//
Sequence Chain: GACCAAUCUGCCCUCAGAGCUUGAGAACAUCUUCGGAUGCAGAGGAGGCAGGCUGCGGUGGCGCGAUAGCGACAACGUACUCAACCUCCAAUGCAUCCCACCACAUGAUGAUGCCUGAAGAGACUUGGUUUUUUG [C22U U55G C72A C79A C123A]
Assigned Label: low value
//
Sequence Chain: GACCAAUCUGCCCUCAGAGCUCGAGAACAUCUUCGGAUGCAGAGGAGGAAGGCUUCGGUGGCGCGAUAGCUCCAACGACCUCAACCUCCAAUGCAUCCCACCACAUGAUGAUGCCUGAACAGCCUUGGUUUUUUG [C49A G71U U78A G120C]
Assigned Label: high value
//
Sequence Chain: GACCAAUCUGCCCUCAGAGCUCGAGAACAUCUUCGGAUGCAGAGGAGGCAGGCUUCGGUGGCGCGAUAGCGCCAACGUCCUCAACCUCCAAUGCAUCCCACCACAUGAUGAUGCCUCAAGAGCCUUGGUUCUUUG [G117C U131C]
Assigned Label: medium value
//
Sequence Chain: GACCAAUCUGCCCUCAGAGCUCGAGAACAUCUUCGGAUGCAGAGGAGGCAGGCUUCGGUGGCGCGAUAGUGCCAACGUCCUCAACCUCCGAUGCAUCCCAACACAUGAUGAUGCCUGAAGAGACUUGGUUUUUUG [C70U A90G C101A C123A]
Assigned Label: high value
//
Sequence Chain: GACCAAUCUGCCCUCCGAGCUCGAGAACAUCGUCGGAUGCAGAGGAGGCAGGCUUCGGUGGCGCGAUAACGCCAACGUCCUCAACCUCCAAUGCAUCCCACCACAUGACGAUGCCUGAAGAGCCUUGGUUUUUUA [A16C U32G G69A U109C G135A]
Assigned Label: low value
//
Sequence Chain: GAUCAAUCUGCCCUCAAAGCUCGAGAACAUCUUCGCAUGCAGAGGAGGAUGGCUUCGCUAGCGCGAUAGCGCCAACGUCCUCAACCUUCAAUGCAUCCCACCACAUGAUGAUGCCUUAAGAGCCUUGGUUUUUUG [C3U G17A G36C C49A A50U G58C G60A C88U G117U]
Assigned Label: low value
//
Sequence Chain: GACCAAUCUGCCCUCAGAGCUCGAGUACAUCUUCGGAUGCACAGGAGGCAGGCUUCGGUGGUGCGAUAGAGCCAACGUCCUCAACCUUCAAUGCAUCCCACCACAUGAUGAUGCCUUAAGAGCCUUGGUUUUUUG [A26U G42C C62U C70A C88U G117U]
Assigned Label: low value
//
Sequence Chain: GACCAAUCUGCCUUAAGAGCUCGAGAACAUCUUCGGAUGCAGAGGAGGCAGGCUUCGGUGGCCCGAUAGCGCCAACGUCCUCAACCUCCAAUGCAUCCCACCACAUGAUGAUGCCUGAAGAGCCUUGGUUUUUUG [C13U C15A G63C]
Assigned Label: medium value
//
Sequence Chain: GACCAAUCUGCCCUCAGAGCUCGAGAACAUCUUCGGAUGCAGAGGAGGCACGCUUCGGUGGCGCGAUAGCGACAACGUCCUCAACCUCCAAUGCAUCCCACCACAUGAUGAUGCCUGAAGAGCCUUGGUUUUUUG [G51C C72A]
Assigned Label: medium value
//
Sequence Chain: GACCAAUCUGCCCUCAGAGCUCGAGAACAUCUUCGGAUGCAGAGGAGGCAGGCUUCGGAGGCGCGAUAGCGCCAACGUCCUCAACCUCCAAUGCAUCCCACCACAUGAUGAUGCCUGAAGAGGCUUAGUUUUUUG [U59A C123G G127A]
Assigned Label: high value
//
Sequence Chain: GACCAAUCUGCCCUCAGAGCUCGAGAACAUCUUCGGAUGCAGAGGAUGCAGGCUUCGGUGGCGCGAUAGCGCCAACGUCCUCAACCUCCAAUGCAUCCCACCACAUGAUGAUGCCUGAAAAGCCUUGGUUUUUUG [G47U G120A]
Assigned Label: high value
//
Sequence Chain: GACCAAUCUGCCCUCAGAGCUCGAGAACAUCUUCGGAUGCAGAGGAGGAAGGCUUCGGUGGCGCGAUAGCGCCAACGUCCUCAAACUCCAAUCCAUCCCACCACAAGAUGAUGCCUGAAGAGCCUUGGUUUUUUG [C49A C85A G93C U106A]
Assigned Label: high value
//
Sequence Chain: GACCAAUCUGCCCUCAGAGCUCGAGAACAUCUUCGGAUGCAGAGGAGUCAGGCUUCGGUGGGGCGAUAGCGCCAACGUCCUCAACCUCCAAUGCAUCCCACCACAUGAUGAUGCCUGAAGAGCCUUGGUUUUUUG [G48U C62G]
Assigned Label: medium value
